Listed here are binders together with their documented OD450.
Molecular target: T1, monkey CD22 protein (ACROBiosystems, catalog number SI2-R52Ha) (monkey, UniProt F6W485 20-688)
T1 construct: commercial protein; also called monkey CD22-ECD; monkey CD22-ECD-His
T1 sequence: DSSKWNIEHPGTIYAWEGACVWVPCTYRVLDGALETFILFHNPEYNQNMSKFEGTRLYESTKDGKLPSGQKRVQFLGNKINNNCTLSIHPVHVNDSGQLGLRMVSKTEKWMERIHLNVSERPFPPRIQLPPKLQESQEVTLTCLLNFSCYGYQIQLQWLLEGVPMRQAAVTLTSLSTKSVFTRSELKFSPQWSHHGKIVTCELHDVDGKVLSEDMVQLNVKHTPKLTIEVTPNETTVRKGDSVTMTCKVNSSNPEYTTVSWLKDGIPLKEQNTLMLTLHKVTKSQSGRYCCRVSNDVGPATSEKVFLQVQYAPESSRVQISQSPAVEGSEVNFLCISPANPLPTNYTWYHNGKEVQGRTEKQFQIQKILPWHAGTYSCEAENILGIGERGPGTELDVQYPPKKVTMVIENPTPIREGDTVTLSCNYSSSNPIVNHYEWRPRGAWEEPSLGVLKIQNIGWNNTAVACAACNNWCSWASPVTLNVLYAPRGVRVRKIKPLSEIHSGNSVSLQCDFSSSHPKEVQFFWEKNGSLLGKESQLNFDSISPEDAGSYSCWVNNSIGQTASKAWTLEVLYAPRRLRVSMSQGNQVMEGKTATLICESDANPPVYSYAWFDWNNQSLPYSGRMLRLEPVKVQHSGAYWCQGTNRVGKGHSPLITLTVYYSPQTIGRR
Assay: ELISA, coated monkey CD22 protein, antibody 0.1 nM
measurementType: OD450 (OD450)

binder	measurementType	unitAbbreviation	reading
F1.224.1 (antibody, human IgG1, kappa, V domains shown, human-murine chimeric IgG1 kappa; VL name legible) VH: EVLLHQSGPELVKPGASVKISCKASGYTFTDFNMDWVRQRHGQSLEWIGDVNPNNGGTIYNQKFKGKATLTVDKSSSTVYMDLRSLTSDDTAVYYCVRLGTSDYGEAWFISWGQGTVVTVSA VL: DIVLTQSPASLAVSLGQRATISCRASQSVSTPRYSFMHWYQQKPGQPPKLLIKYASNLESGFPARFTGSGSGTDFTLNIHPVEEEDTAAYYCQQSWAIPWTFGGGTKLEIKR	OD450	OD450	2.3
F2.343.16 (antibody, human IgG1, lambda, V domains shown, human-murine chimeric IgG1 lambda; VL name legible) VH: QVQLKQSGPGLVQPSQSLSITCTVSGFSLTGYGVQWVRQSPGKGLEWLGVIWGGGGTDYNAAFISRLNIIKDNSKSQVFFKMNSLQADDTAIYYCARYSKYGHFDVWGTGTAVTVSS VL: QAVVTQESALTTSPGETVTLTCRSSTGAVTTSNYANWVQEKPDHLFTGLIGGTYNRVPGVPARFSGSLIGDKAALTITGAQTEDEAIYFCALWYSNHFWVFGGGTKLTVLG	OD450	OD450	0.05

Values compiled from patent US20240084003A1.
